B1: POU domain, class 6, transcription factor 2, residues 609 to 663; numbered along this chain, P78424 (parent)
chain: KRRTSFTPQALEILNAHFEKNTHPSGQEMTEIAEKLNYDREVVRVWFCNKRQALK

Variants of: B1
Assay: abundance fitness (aPCA) (normalised: wild type 0, dead -1); higher = more abundant; growth selection in yeast, the domain comes from the species named
Details: Homo sapiens
Reported values of abundance fitness for individual entries
Reply with just the number.

Before answering, review these 2 worked examples.
Ask: Record request: abundance fitness value, item "R44L"
Reply: -0.21

Ask: Record request: abundance fitness value, item "H17S"
Reply: -0.065

More entries:
Ask: Record request: abundance fitness value, item "V42S"
Reply: 0.029

Ask: Record request: abundance fitness value, item "L36A"
Reply: -0.094

Ask: Record request: abundance fitness value, item "F18G"
Reply: -0.848

Ask: Record request: abundance fitness value, item "P8Q"
Reply: -0.365

Ask: Record request: abundance fitness value, item "N49F"
Reply: -0.292

Ask: Record request: abundance fitness value, item "S5G"
Reply: 0.041

Ask: Record request: abundance fitness value, item "Q9M"
Reply: -0.041

Ask: Record request: abundance fitness value, item "Q52H"
Reply: 0.022

Ask: Record request: abundance fitness value, item "G26W"
Reply: 0.119

Ask: Record request: abundance fitness value, item "S5H"
Reply: -0.245

Ask: Record request: abundance fitness value, item "E41L"
Reply: -0.617

Ask: Record request: abundance fitness value, item "Q9E"
Reply: -0.432

Ask: Record request: abundance fitness value, item "Q9P"
Reply: -0.028

Ask: Record request: abundance fitness value, item "T7E"
Reply: 0.05

Ask: Record request: abundance fitness value, item "A53S"
Reply: 0.005

Ask: Record request: abundance fitness value, item "A33G"
Reply: -0.248
